The entries below come with measured MICb values attached.
Test system: E. coli LMG15862
Conditions: MIC of GNP alone
Method: The test of synergistic effect was processed by conducting standard chequerboard broth microdilution assays. […] Row 11 are used as growth control with no peptide was included, while row 12 with MHB medium-only wells was included as a sterility control as referred before. […] To determine whether the combination therapy is additive, synergistic or antagonistic, fractional inhibitory concentration (FIC) indices were calculated. […]
No end group written: not given here.
Property measured: MICb (µM)

- Substance: "AIVQRIKKWLR-NH2 [GNP8-3]"
  Recorded number: 12
- Substance: "RIRKRIKKWLR-NH2 [GNP8-4]"
  Recorded number: 16
- Substance: "RIVQRIKKWR-NH2 [GNP8-6]"
  Recorded number: 256
- Substance: "RIKRRIKKWLR-NH2 [GNP8-5]"
  Recorded number: 24
- Substance: "KIVQRIKKWLR-NH2 [GNP8-2]"
  Recorded number: 16
- Substance: "RIVQRIKKWL-NH2 [GNP8-1]"
  Recorded number: 32

Entry source: patent US20200368315A1
